- Measured target: OR51E2 (Homo sapiens)
- Construct: OR51E2 plasmid transiently transfected into Hana3A cells with CREB-luciferase reporter
- Protocol text: cAMP CRE-luciferase reporter assay in Hana3A cells
- Format: cell-based
- Details: agonist, M10d medium, max conc. 1 mM, read-out: EC50 (potency) /
pEC50: −log10 of the molar value.
Examples of compounds with documented pEC50 follow.
Readout name: pEC50

                                compound        measured_target  readout_name  measured_value
0  CCCCCCCCCCCCCCCC(=O)O [Palmitic acid]  OR51E2 (Homo sapiens)         pEC50            8.01
1    O=C(O)[C@@H](O)CO [L-Glyceric acid]  OR51E2 (Homo sapiens)         pEC50            8.72

====

Measured pEC50, listed per entry for reference.
- Measured target: OR51E2 (Homo sapiens)
- Construct: OR51E2 plasmid transiently transfected into Hana3A cells with CREB-luciferase reporter
- Protocol text: cAMP CRE-luciferase reporter assay in Hana3A cells
- Format: cell-based
- Details: agonist, M10d medium, max conc. 10 µM, read-out: EC50 (potency) /
pEC50: −log10 of the molar value.
Readout name: pEC50

>>> df
                                   molecule  readout_name  measured_value
0             CC(=O)N[C@@H](CCC(=O)O)C(=O)O         pEC50            9.64
1  C[C@]12CC[C@H]3[C@@H](CCC4=CC(=O)CC[C@@]43CO)[C@@H]1CCC2=O [19-OH AD, 19-hydroxyandrost-4-ene-3,17-dione]         pEC50            9.82

====

- Measured target: OR51E2 (Homo sapiens)
- Construct: OR51E2 plasmid transiently transfected into Hana3A cells with CREB-luciferase reporter
- Sequence (Q9H255 1-320): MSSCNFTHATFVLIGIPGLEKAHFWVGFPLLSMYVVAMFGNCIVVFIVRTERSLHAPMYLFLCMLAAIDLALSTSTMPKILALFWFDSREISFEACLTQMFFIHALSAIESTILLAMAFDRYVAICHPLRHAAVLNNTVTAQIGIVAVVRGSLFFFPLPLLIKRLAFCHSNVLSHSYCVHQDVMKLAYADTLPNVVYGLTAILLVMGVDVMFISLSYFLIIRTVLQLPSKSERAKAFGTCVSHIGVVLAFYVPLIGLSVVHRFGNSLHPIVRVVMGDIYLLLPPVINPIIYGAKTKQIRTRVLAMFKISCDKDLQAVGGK
- Protocol text: cAMP CRE-luciferase reporter assay in Hana3A cells
- Type: cell-based
- Details: agonist, M10d medium, max conc. 100 µM, read-out: EC50 (potency) /
pEC50: −log10 of the molar value.
Readout name: pEC50

                          smiles_string  measured_value
0  Oc1ccc(-c2[o+]c3cc(O)cc(O)c3cc2O)cc1            9.38
1                             O=C1CCCN1            8.72

Entry source: paper PMC5985834
